Test system: LXRb homodimer (NR concentration 270 nM)
Experiment: PBM binding z-score (relative to random genomic background probes); higher = stronger binding; sequences stand for … in GC…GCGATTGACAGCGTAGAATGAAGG
Classification field: rule met = PBM binding z-score at or over -0.2; rule not met = PBM binding z-score under -0.2.

For this sequence, is measured PBM binding z-score -0.2 or higher? `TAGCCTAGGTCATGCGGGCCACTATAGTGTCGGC`
rule met

For this sequence, is measured PBM binding z-score -0.2 or higher? `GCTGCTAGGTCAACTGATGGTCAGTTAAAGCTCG`
rule met

For this sequence, is measured PBM binding z-score -0.2 or higher? `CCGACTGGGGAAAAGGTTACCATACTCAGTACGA`
rule not met

For this sequence, is measured PBM binding z-score -0.2 or higher? `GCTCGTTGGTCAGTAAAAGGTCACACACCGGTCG`
rule met

For this sequence, is measured PBM binding z-score -0.2 or higher? `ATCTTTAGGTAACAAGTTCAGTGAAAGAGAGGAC`
rule met

For this sequence, is measured PBM binding z-score -0.2 or higher? `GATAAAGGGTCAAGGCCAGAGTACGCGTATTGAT`
rule met

For this sequence, is measured PBM binding z-score -0.2 or higher? `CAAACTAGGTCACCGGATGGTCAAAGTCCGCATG`
rule met

For this sequence, is measured PBM binding z-score -0.2 or higher? `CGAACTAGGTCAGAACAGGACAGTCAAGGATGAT`
rule not met

For this sequence, is measured PBM binding z-score -0.2 or higher? `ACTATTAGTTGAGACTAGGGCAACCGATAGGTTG`
rule met

For this sequence, is measured PBM binding z-score -0.2 or higher? `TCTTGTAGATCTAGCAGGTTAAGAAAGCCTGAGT`
rule not met

For this sequence, is measured PBM binding z-score -0.2 or higher? `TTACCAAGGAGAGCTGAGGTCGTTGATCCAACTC`
rule not met

For this sequence, is measured PBM binding z-score -0.2 or higher? `TCATATAGGTAATACAGGTGTAAGTCGGCATCTA`
rule met

For this sequence, is measured PBM binding z-score -0.2 or higher? `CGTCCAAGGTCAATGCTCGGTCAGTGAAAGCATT`
rule met

For this sequence, is measured PBM binding z-score -0.2 or higher? `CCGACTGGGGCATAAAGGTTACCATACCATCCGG`
rule not met

For this sequence, is measured PBM binding z-score -0.2 or higher? `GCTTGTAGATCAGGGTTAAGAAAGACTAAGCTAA`
rule not met

For this sequence, is measured PBM binding z-score -0.2 or higher? `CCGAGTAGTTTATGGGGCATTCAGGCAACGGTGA`
rule met

For this sequence, is measured PBM binding z-score -0.2 or higher? `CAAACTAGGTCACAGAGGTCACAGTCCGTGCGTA`
rule met

For this sequence, is measured PBM binding z-score -0.2 or higher? `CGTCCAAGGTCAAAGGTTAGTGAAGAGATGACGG`
rule met

For this sequence, is measured PBM binding z-score -0.2 or higher? `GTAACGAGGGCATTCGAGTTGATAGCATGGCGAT`
rule not met

For this sequence, is measured PBM binding z-score -0.2 or higher? `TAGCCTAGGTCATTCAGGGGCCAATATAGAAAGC`
rule met

For this sequence, is measured PBM binding z-score -0.2 or higher? `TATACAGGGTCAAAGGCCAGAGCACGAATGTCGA`
rule met

For this sequence, is measured PBM binding z-score -0.2 or higher? `ATAGCAAGGTGATCGTGAGGTCGTTGATACTAAC`
rule not met

Values compiled from the supplement of paper PMC6555819.
